Read-out: Pro-epidermal growth factor (Homo sapiens) (UniProt P01133)
Test: LTEA_HepaRG_EGF: Life Technologies and Expression Analysis (LTEA) Assay for Epidermal growth factor (EGF) using HepaRG (AID 2283489)
Conditions: mRNA level, 48 h; actives raise or lower the signal
The source made the active and inactive calls. The calls were made as follows: active = hit-call score of the fitted dose curve at least 0.9, where 1 is the maximum; inactive = score below 0.9.
Answer with one of the outcomes 1 for active, 0 for inactive

Use the examples below as a reference point.
[
  {
    "COMPOUND": "CC(C)=CCC/C(C)=C\\CO",
    "CATEGORY LABEL": 0
  },
  {
    "COMPOUND": "O=c1[nH]c2ccc(S(=O)CCN3CCC(Cc4ccc(F)cc4)CC3)cc2o1 (stereo not drawn)",
    "CATEGORY LABEL": 1
  },
  {
    "COMPOUND": "CC(C)=CCCC(C)=CC=O",
    "CATEGORY LABEL": 0
  },
  {
    "COMPOUND": "C1N2CN3CN1CN(C2)C3",
    "CATEGORY LABEL": 0
  }
]

Prompt: # fetch the recorded call for C=CC(=C)CCC=C(C)C here
Completion: 0

Prompt: # fetch the recorded call for Fc1ccccc1[C@@H](F)COC1CCC(Nc2ncnc3[nH]ncc23)CC1 (stereo partly drawn) here
Completion: 1

Prompt: # fetch the recorded call for CN(C)c1ccc(Cc2ccc(N(C)C)cc2)cc1 here
Completion: 0

Prompt: # fetch the recorded call for CCNc1ccccc1 here
Completion: 0

* * *

Read-out: CYP2E1 (gene 1571)
Assay: LTEA_HepaRG_CYP2E1: Life Technologies and Expression Analysis (LTEA) Assay for CYP2E1 using HepaRG (AID 2283485)
Conditions: mRNA level, 48 h; actives raise or lower the signal
Calls of active or inactive are those of the source. How the source made its calls: active means hit-call score of the fitted dose curve at least 0.9, where 1 is the maximum; inactive means score below 0.9.
ENDPOINT NAME: AC50

[
  {
    "COMPOUND": "COC(=O)c1c(Cl)c(Cl)c(C(=O)OC)c(Cl)c1Cl",
    "REPORTED MEASUREMENT": "inactive"
  },
  {
    "COMPOUND": "CCOC(=O)CC(CC(=O)OCC)(OC(C)=O)C(=O)OCC",
    "REPORTED MEASUREMENT": "inactive"
  },
  {
    "COMPOUND": "C=CCCCCCCCCC(=O)O",
    "REPORTED MEASUREMENT": "inactive"
  },
  {
    "COMPOUND": "CN(C)c1ccc(N=NS(=O)(=O)O)cc1",
    "REPORTED MEASUREMENT": "22 µM (active)"
  },
  {
    "COMPOUND": "O=C(NS(=O)(=O)/C=C/c1ccccc1)c1ccc(F)cc1Cl",
    "REPORTED MEASUREMENT": "22.3 µM (active)"
  }
]

Prompt: State its AC50 for this compound: O=C(O)c1cccc(Oc2ccccc2)c1
Completion: inactive

Prompt: State its AC50 for this compound: CCn1nc(Cc2ccccc2)cc1C1CCN(C[C@H]2C[C@H](N(C)[C@@H](C(=O)O)C(C)C)C[C@@H]2c2cccc(F)c2)CC1
Completion: 20.4 µM (active)

Prompt: State its AC50 for this compound: CN(C)c1ccc(Cc2ccc(N(C)C)cc2)cc1
Completion: 50 µM (active)

* * *

Target: Transcription factor Sp1 (Homo sapiens)
Experiment: ATG_Sp1_CIS: Attagene CIS-FACTORIAL HepG2 Assay for human Specificity Protein 1 (Sp1) (AID 2282961)
Conditions: HepG2 Sp1 cis-reporter transcription, actives raise or lower the signal
Activity calls are given as the source filed them. Rule for the calls: active = hit-call score of the fitted dose curve at least 0.9, where 1 is the maximum; inactive = score below 0.9.
Answer with one of the outcomes True = active, False = inactive

Use the examples below as a reference point.
[
  {
    "COMPOUND": "Oc1ccc2c(c1)-c1ccccc1C2",
    "CATEGORY LABEL": "True"
  },
  {
    "COMPOUND": "COC(=O)CC(=O)OC",
    "CATEGORY LABEL": "False"
  },
  {
    "COMPOUND": "CCOc1cccc(-n2cc(C(=O)N3CCN(c4cc(C(=O)O)c5ccccc5c4)CC3)nc2-c2ccc(C)cc2)c1",
    "CATEGORY LABEL": "False"
  }
]

Proceed to the following item.
Prompt: # fetch the recorded call for CC(C)CCO here
Completion: False

Data provenance: PubChem BioAssay (EPA / NIEHS)
